Biological target: Recombinant human liver GK1 (GST-GK) (Homo sapiens)
Construct: made in house; host or cells: E. coli
Sequence (P35557 1-466 isoform P35557-2): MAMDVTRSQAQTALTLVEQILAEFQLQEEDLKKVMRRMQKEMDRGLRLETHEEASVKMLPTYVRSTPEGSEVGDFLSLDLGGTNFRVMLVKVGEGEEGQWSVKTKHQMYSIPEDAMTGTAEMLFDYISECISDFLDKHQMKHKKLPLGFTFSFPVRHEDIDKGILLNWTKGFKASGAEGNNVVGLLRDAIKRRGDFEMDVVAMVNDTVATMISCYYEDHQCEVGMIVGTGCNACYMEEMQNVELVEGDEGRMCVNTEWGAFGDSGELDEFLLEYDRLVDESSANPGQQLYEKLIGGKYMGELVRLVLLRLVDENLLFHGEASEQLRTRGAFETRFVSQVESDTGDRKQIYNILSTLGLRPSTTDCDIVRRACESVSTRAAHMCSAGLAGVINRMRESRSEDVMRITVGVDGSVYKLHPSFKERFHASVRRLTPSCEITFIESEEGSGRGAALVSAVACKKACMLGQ
Assay: In vitro glucokinase activity (G6PDH-coupled NADH assay)
Format: biochemical
Conditions: 30° C., 5 mM D-glucose, 10% DMSO
Method: Glucokinase In Vitro Assay Protocol: Glucokinase (GK) was assayed by coupling the production of glucose-6-phosphate to the generation of NADH with glucose-6-phosphate dehydrogenase (G6PDH, 0.75-1 kunits/mg; Boehringer Mannheim, Indianapolis, Ind.) from Leuconostoc mesenteroides as the coupling enzyme (Scheme 2). […] After addition of enzyme, the increase in optical density (OD) at 340 nm was monitored spectrophotometrically to determine the rate of change (OD340 per min). […]
Endpoint Label: SC1.5 (concentration of activator that produced a 50% increase in the activity of GK) (µM)
Kindly provide the numeric value in µM only, without the unit symbol.

Examples with answers:
{"columns": ["Compound", "Quantity Unit", "Data Value"],
 "data": [
  ["CC(C)C[C@@H](C(=O)Nc1ccn(C[C@@H](O)C[C@@H](O)CC(=O)OC(C)(C)C)n1)N1CC(Oc2ccccc2Cl)=CC1=O", "µM", 0.307],
  ["COCCn1ccc(NC(=O)[C@H](CC2CCCCC2)N2CC(Oc3ccccc3C(F)(F)F)=CC2=O)n1.Cl", "µM", 0.039]
]}

Request the reported SC1.5 (concentration of activator that produced a 50% increase in the activity of GK) associated with CC(C)(O)Cn1ccc(NC(=O)[C@H](CC2CCCC2)N2CC(Oc3c(F)cccc3F)=CC2=O)n1
0.021

Request the reported SC1.5 (concentration of activator that produced a 50% increase in the activity of GK) associated with O=C(Nc1ccn(C[C@@H](O)CO)n1)[C@H](Cc1ccccc1)N1CC(Oc2ccccc2Cl)=CC1=O
1.064

Request the reported SC1.5 (concentration of activator that produced a 50% increase in the activity of GK) associated with Cc1ccccc1OC1=CC(=O)N([C@@H](CC(C)C)C(=O)Nc2ccn(C[C@@H](O)CO)n2)C1
0.336
